- measured-on: human IgE; monoclonal antibody SE44 (human) (UniProt P01854)
- test-details: BIAcore, antibody captured by anti-human IgG, IgE SE44 as analyte
reported-property: kon (M⁻¹ s⁻¹)
Write the value in M⁻¹ s⁻¹ as a bare number.

See these solved cases before continuing.
If you can, please state the reported kon value of reshaped human C21 antibody C21-Hay3/L3 (antibody, V domains shown) VH: QVQLVQSGAEVKKPGASVKVSCKASGYTFSMYWLEWVRQAPGQRLEWMGEISPGTFTTNYNEKFKARATFTADTSASTAYMELSSLRSEDTAVYYCARFSHFSGSNYDYFDYWGQGTLVTVSS VL: EIVLTQSPGTLSLSPGERATLSCRASQSIGTNIHWYQQKPGQAPRLLIKYASESISGIPSRFSGSGSGTDFTLTISRLEPEDFAMYYCQQSDSWPTTFGQGTKVEIK .
260000

Record: reshaped human C21 antibody C21-H3/L1 (antibody, V domains shown) VH: QVQLVQSGAEVKKPGASVKVSCKASGYTFSMYWLEWVRQAPGHGLEWVGEISPGTFTTNYNEKFKARATFTADTSTNTAYMELSSLRSEDTAVYYCARFSHFSG VL: DILLTQSPGTLSLSPGERATLSCRASQSIGTNIHWYQQKPGQAPRLLIKYASESISGIPSRFSGSGSGTDFTLTISRLEPEDFAMYY
250000

// moving on: another record for kon
If you can, please state the reported kon value of reshaped human C21 antibody C21-H1/L1 (antibody, V domains shown) VH: QVQLVQSGAEVKKPGASVKVSCKASGYTFSMYWLEWVKQRPGHGLEWVGEISPGTFTTNYNEKFKAKATFTADTSTNTAYMELSSLTSEDTAVYYCARFSHFSG VL: DILLTQSPGTLSLSPGERATLSCRASQSIGTNIHWYQQKPGQAPRLLIKYASESISGIPSRFSGSGSGTDFTLTISRLEPEDFAMYY .
260000
